Test system: MDA-MB-435 melanoma
Assay: NCI-60 one-dose screen, 48 h
Conditions: 10 µM
This is part of a sample that, as a whole, favours compounds with a hit. Of some 83,000 tested, about 20% had one in any assay. Calls of active or inactive are those of the source. Rule for the calls: active = growth percent below 10; inactive = the rest.
Give your call using only these classes: 1.0 (active), 0.0 (inactive)

CCN(CC)c1ccc2nc3ccc(=[N+](CC)CC)cc-3oc2c1 = 1.0
CC(=O)Nc1c(C)cc(C)cc1C = 0.0
CCOC(=O)c1cc(/C=C/c2cccc(Cl)c2)on1 = 0.0

### Prompt Outcome logged for `COc1ccc(OC)c(/C=C2\CCc3ccccc3C2=O)c1` in this assay:
### Response 1.0

### Prompt Fill in: this test's call for `COC(=O)c1cccnc1` is ___
### Response 0.0

### Prompt Returns: the outcome recorded for `CN(C)Cc1cc(C(C)(C)CC(C)(C)C)ccc1O` in this assay.
### Response 0.0

### Prompt What is the recorded call for this compound in the test? COc1ccc(C(=O)C(Br)C(Br)C(=O)O)cc1 (configuration not stated)
### Response 0.0

---

System: CAKI-1 renal
Experiment: NCI-60 one-dose screen, 48 h (100 = growth as untreated, 0 = no growth, -100 = all killed)
Settings: 10 µM
Compounds without any hit were thinned out: in the full panel of roughly 83,000, 20% have a hit.
Mark FALSE for growth values under 70%, and TRUE for everything at or above.

COC(=O)Nc1nc2ccc(C(=O)c3ccc(F)cc3)cc2[nH]1 = FALSE
CN(c1ccccc1)c1ncnc2c1ncn2C = TRUE
COc1ccc2c(c1)CCc1c-2n[nH]c1-c1[nH]nc2c1CCc1cc(OC)ccc1-2 = FALSE

### Prompt Hello, I need to know if `Cc1cc2nc(CO)[nH]c2cc1C` has measured growth not below 70%. Thanks!
### Response TRUE

### Prompt Does CC1CCC2C(C)(C)C3CC12CC1OC13C (stereo not drawn) have a reported growth of at least 70%?
### Response TRUE

### Prompt Given `CC(=O)OCC(=O)[C@@]1(O)CC[C@H]2[C@@H]3CC[C@@H]4C[C@H](O)CC[C@]4(C)[C@H]3C(=O)C[C@@]21C` , state whether its growth is at least 70%.
### Response TRUE

### Prompt Record `CC(C)=CC(=O)OC(=O)C=C(C)C` ; criterion: growth no lower than 70%. Met?
### Response TRUE

---

System: SF-268 CNS
Assay: NCI-60 one-dose screen, 48 h (100 = growth as untreated, 0 = no growth, -100 = all killed)
Details: 10 µM
About 83,000 compounds went through this panel and 20% of them were active in at least one assay; those are over-represented in the sample as a whole.
experimental_endpoint: growth (%)
Give the quantity in %, number only.

O=C1OC(=O)C2C1C1(Cl)C(Cl)=C(Cl)C2(Cl)C2C(=O)OC(=O)C21 (stereo unspecified) = 105
Oc1ccc(O)cc1 = 106
Cc1nc2c(ccc3ccccc32)s1 = 116
O=C1OC[C@H]2[C@H](c3ccc(O)c(O)c3)c3cc(O)c(O)cc3C[C@H]12 = 116

### Prompt Kindly indicate its recorded growth. Item: `CC[N+](C)(CC)CCO`
### Response 112

---

A collection of molecules and their measured growth
System: UO-31 renal
Assay: NCI-60 one-dose screen, 48 h (100 = growth as untreated, 0 = no growth, -100 = all killed)
Settings: 10 µM
Method: Growth inhibition of the UO-31 human tumor cell line is measured as a screen for anti-cancer activity. Cells are grown in 96 well plates and exposed to the test compound for 48 hours. Compounds are tested at a single concentration, which is 10^-5 M for most compounds. The reported endpoint is percent growth (GI% or GIPRCNT), where numbers from 0 - 100% represent growth inhibition, and numbers from -100% - 0 represent cell death. For example, a value of 40 represents 60% growth inhibition. […]
About 83,000 compounds went through this panel and 20% of them were active in at least one assay; those are over-represented in the sample as a whole.
Write the number in % without appending the unit.

Here are 10 molecules together with their reported answers.
C=CC(=O)OCCCCCCCC = 88.4
O=C(Nc1ccccc1C(=O)NCC1CC1)c1cccs1 = 89.4
Cc1cc(C)cc(NCCC#N)c1 = 96.5
CC(=O)OCCC(C)CCC=C(C)C (configuration not stated) = 88
CCCCN(CCCC)CCCO = 104
N#CC(=Nc1cccc(F)c1)C1=C(O)c2ccccc2C1=O = 78.6
CCOC(=O)c1[nH]c(C)c(C(=O)O)c1C = 84.7
COc1cc2nc3cc([N+](=O)[O-])ccc3c(Cl)c2cc1OC = 84.1
COc1ccccc1N=Nc1c(O)ccc2cc(S(=O)(=O)O)ccc12 = 84.7
OCc1cccc2ccccc12 = 95.5

### Prompt Please look at this molecule and report its growth: `O=c1c2ccccc2c(Br)c(Br)c2ccccc12`
### Response -35.2

### Prompt Return growth for the following molecule: C#CC(C(C)C)N(CCO)CCCC (configuration not stated)
### Response 96.8
